pIC50: −log10 of the molar value.
Record set of pIC50 for target or system human MCH-1R (Homo sapiens, UniProt Q99705).
Reported Property: pIC50

Problem: Look up pIC50: CN(C)C/C=C/c1ccc(-n2ccc(OCc3ccc(Cl)cc3)cc2=O)cc1 [Example 8]
Result: 8.85

Problem: Similarly, CC(C)N(C)C/C=C/c1ccc(-n2ccc(OCc3ccc(Cl)cc3)cc2=O)cc1 [Example 5] ?
Result: 8.85

Problem: Similarly, O=c1cc(OCc2ccc(F)cc2)ccn1-c1ccc(NCCN2CCCC2)cc1 [Example 14] ?
Result: 8.35

Problem: Similarly, CCCN(C)C/C=C/c1ccc(-n2ccc(OCc3ccc(Cl)cc3)cc2=O)cc1 [Example 4] ?
Result: 8.92

Problem: Similarly, O=c1cc(OCc2ccc(Cl)cn2)ccn1-c1ccc(CCNC2CCCC2)cc1 [Example 37] ?
Result: 8.34

Problem: Similarly, CO[C@H]1CCN(CCc2ccc(-n3ccc(OCc4ccc(F)cc4)cc3=O)cc2)C1 [Example 27] ?
Result: 8.24

P: CCN(CC)CCc1ccc(-n2ccc(OCc3ccc(Cl)cn3)cc2=O)cc1 [Example 32]
Q: O=c1cc(OCc2ccc(F)cc2)ccn1-c1ccc([C@H]2C[C@H](N3CCCC3)C2)cc1 [Example 53]
R: CCCCN(C)C/C=C/c1ccc(-n2ccc(OCc3ccc(Cl)cc3)cc2=O)cc1 [Example 6]
Problem: Sort low-to-high on pIC50, please. Present the labels in the sequence the task asks for.
Result: P, Q, R
